The reported numbers originate from paper PMC8809517.

system: TRX-9P-S2 (synthetic construct); assay: ITC; conditions: HRP: 50 mM Tris pH 8, 150 mM NaCl, 1 mM bME, 50 ug/ml BSA, 3 ug/ml yeast RNA, 0.5% heparin, 2 nM RNA; ITC (25 C) and FP: Tris pH 8, 200 mM KCl, 5% glycerol …
measurement-type: Kd (nM)
Numeric answer only, unit nM assumed.

Reported Kd for UUACACGUG [rpoA footprint (ITC)] : what is it? 239
